The values you see were collected from patent US20130150376A1.

TARGET_UNDER_TEST: BACE1 enzyme (soluble, truncated BACE enzyme, BACE1deltaTM96His) (Homo sapiens, UniProt P56817)
Construct: soluble, truncated BACE enzyme (BACE1deltaTM96His); His; made in house
Sequence (P56817 46-457): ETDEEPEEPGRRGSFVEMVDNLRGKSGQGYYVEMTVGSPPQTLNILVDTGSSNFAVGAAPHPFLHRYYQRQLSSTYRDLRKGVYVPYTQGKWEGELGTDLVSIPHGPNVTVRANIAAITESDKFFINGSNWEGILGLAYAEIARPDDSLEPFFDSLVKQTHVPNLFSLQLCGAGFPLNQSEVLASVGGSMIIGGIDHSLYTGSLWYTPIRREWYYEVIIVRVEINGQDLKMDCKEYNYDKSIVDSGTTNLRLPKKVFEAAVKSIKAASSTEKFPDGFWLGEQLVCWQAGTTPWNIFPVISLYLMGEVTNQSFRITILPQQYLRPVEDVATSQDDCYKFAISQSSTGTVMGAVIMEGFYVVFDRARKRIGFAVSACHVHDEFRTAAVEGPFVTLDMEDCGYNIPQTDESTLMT
EXPERIMENTAL_PROTOCOL: BACE1 Fluorescent Polarization (FP) Assay
Type: biochemical
DETAILS: 8-point curve; geometric mean of 2-4 IC50 determinations unless footnoted (^2: 5-6 determinations; ^4: single determination); read-out: BACE activity, 8-point curve, IC50
Protocol: BACE1 Fluorescent Polarization (FP) Assay The fluorescently tagged synthetic substrate, Biotin-GLTNIKTEEISEISŶEVEFR-C[oregon green]KK-OH can be efficiently cleaved by the beta-secretase enzyme and is therefore useful to assay beta-secretase activity in the presence or absence of inhibitory compounds. […] After a 10 minute incubation at room temperature, plates were read on a PerkinElmer Envision for fluorescence polarization (Ex485 nm/Em530 nm). […]
Where a name gives a salt, the structure may show the parent alone.
MEASURE: pIC50
For clarity, pIC50 is expressed as the negative log10 of concentration in mol/L.

Problem: Which pIC50 value belongs to Cc1ccsc1-c1ocnc1CN1CC[C@]2(C=CS(=O)(=O)N2c2cccc(F)c2)C[C@@H]1C [Example 37] ?
Result: 5.74

Problem: Which pIC50 value belongs to CC(C)Cc1ocnc1CN1CC[C@]2(C=CS(=O)(=O)N2c2cccc(F)c2)C[C@@H]1C [Example 12] ?
Result: 6.47

Problem: Which pIC50 value belongs to Cc1csnc1-c1cc(CN2CC[C@]3(C=CS(=O)(=O)N3c3cccc(F)c3)C[C@@H]2C)ccc1O [Example 72, trifluoroacetic acid salt] ?
Result: 9.01

Problem: Which pIC50 value belongs to C[C@H]1C[C@@]2(C=CS(=O)(=O)N2c2cccc(F)c2)CCN1Cc1ccc(O)c(Cl)c1 [Example 15, hydrochloride salt] ?
Result: 6.12
